Target: hA2A receptors (Homo sapiens, UniProt P29274)
Sequence (P29274 whole entry): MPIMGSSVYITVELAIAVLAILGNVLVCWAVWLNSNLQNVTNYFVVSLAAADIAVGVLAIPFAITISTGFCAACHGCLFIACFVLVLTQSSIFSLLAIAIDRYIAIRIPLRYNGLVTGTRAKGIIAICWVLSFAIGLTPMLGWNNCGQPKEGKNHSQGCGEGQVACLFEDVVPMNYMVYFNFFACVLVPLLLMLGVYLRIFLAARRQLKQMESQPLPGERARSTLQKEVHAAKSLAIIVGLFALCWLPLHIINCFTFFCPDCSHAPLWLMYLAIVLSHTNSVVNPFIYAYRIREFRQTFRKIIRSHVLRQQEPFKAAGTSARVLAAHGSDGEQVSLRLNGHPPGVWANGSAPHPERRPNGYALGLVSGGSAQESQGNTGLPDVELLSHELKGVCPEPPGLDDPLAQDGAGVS
pKi: −log10 of the molar value.
Hi all, reminder that labels come from pKi, split as bin A = under 6, bin B = from 6 up to 8, bin C = 8 and over

These recorded examples may help you get a feel for the data.
>>> class_assignment("N#Cc1cccc(-c2nc(N)nc3c2cnn3Cc2ccc(N)c(C(F)(F)F)c2)c1F [11x]")
"bin C"
>>> class_assignment("N#Cc1cncc(-c2nc(N)nc3c2cnn3Cc2ccc(N)cc2F)c1 [11g]")
"bin A"
>>> class_assignment("N#Cc1cc(-c2nc(N)nc3c2cnn3Cc2ccc(N)cc2F)ccn1 [11h]")
"bin A"
>>> class_assignment("N#Cc1cncc(-c2nc(N)nc3c2cnn3Cc2ccc(N)cc2)c1 [11c]")
"bin A"
>>> class_assignment("N#Cc1ccnc(-c2nc(N)nc3c2cnn3Cc2ccc(N)cc2F)c1 [11e]")
"bin B"

Attention now shifts to the item below.
[in] Which category fits this record: Cc1cc(Cn2ncc3c(-c4cncc(C#N)c4)nc(N)nc32)ccc1N [11m]
[out] bin A

---

Assay: pharmacokinetics and brain/plasma ratio in mouse brain
Type: in vivo, Crl:CD-1 mice
Settings: male, Crl:CD-1, mouse, other: IN (intranasal, placed near the nares to inhale); 10 mg/kg IN; Brain AUClast/Plasma AUClast; read-out: B/P Ratio
observed_property: Kp
In your answer, state the number alone without any accompanying words.

[in] Fill in Kp for record Cc1cc(Cn2ncc3c(-c4cccc(C#N)c4F)nc(N)nc32)ccc1N [11o]
[out] 0.183

---

Test: pharmacokinetics and brain/plasma ratio in mouse brain
Format: in vivo, Crl:CD-1 mice
Details: male, Crl:CD-1; mouse brain; 1 mg/kg IV
observed_property: Tmax

[in] Fill in Tmax for record Cc1cc(Cn2ncc3c(-c4cccc(C#N)c4F)nc(N)nc32)ccc1N [11o]
[out] 4.98 min

---

Target: UniProtKB Q12809
Sequence (Q12809 whole entry): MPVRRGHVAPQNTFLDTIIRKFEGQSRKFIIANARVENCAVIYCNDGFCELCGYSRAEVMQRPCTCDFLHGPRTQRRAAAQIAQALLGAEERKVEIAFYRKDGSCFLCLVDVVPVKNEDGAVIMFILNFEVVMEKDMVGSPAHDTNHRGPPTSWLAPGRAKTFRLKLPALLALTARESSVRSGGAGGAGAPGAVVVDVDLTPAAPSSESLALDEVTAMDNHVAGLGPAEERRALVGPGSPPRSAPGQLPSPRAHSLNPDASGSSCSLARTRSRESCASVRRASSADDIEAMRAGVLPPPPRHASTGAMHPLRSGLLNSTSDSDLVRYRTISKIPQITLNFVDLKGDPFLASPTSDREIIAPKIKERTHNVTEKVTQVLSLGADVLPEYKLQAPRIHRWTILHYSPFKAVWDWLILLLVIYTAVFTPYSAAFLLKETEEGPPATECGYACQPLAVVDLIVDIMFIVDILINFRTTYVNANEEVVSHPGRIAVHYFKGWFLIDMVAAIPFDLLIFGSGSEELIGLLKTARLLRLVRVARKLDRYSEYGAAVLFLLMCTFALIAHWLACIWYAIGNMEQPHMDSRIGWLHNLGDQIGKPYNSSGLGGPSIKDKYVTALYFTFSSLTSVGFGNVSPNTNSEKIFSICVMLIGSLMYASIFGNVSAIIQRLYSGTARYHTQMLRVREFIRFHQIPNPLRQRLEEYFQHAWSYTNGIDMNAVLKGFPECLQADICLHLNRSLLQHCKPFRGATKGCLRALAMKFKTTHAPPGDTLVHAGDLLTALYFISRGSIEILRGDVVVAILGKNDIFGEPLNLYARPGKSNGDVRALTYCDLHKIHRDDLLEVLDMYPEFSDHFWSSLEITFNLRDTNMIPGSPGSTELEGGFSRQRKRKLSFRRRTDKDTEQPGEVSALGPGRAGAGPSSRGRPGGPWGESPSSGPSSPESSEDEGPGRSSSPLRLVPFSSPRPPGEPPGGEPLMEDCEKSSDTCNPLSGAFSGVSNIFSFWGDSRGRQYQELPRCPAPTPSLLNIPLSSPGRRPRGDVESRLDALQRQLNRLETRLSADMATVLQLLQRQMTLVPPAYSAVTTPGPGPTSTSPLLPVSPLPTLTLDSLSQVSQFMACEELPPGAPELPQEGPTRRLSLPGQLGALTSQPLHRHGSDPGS
Assay: hERG manual patch clamp in hERG-expressing HEK cells
Conditions: read-out: hERG inhibition IC50
observed_property: IC50 (µM)
Give just the number in µM; leave the unit off.

[in] Report IC50 under test system UniProtKB Q12809 for Cc1cc(Cn2ncc3c(-c4cccc(C#N)c4F)nc(N)nc32)ccc1N [11o] .
[out] 116

---

Biological target: hA2A receptors (Homo sapiens, UniProt P29274)
pKi: −log10 of the molar value.
Please use Met whenever pKi is not below 7, and Not met whenever it is.

>>> class_assignment("N#Cc1cccc(-c2nc(N)nc3c2cnn3Cc2c(F)cc(N)cc2F)c1F [11u]")
"Met"
>>> class_assignment("N#Cc1cccc(-c2nc(N)nc3c2cnn3Cc2ccc(N)cc2F)c1 [11i]")
"Met"
>>> class_assignment("N#Cc1cc(-c2nc(N)nc3c2cnn3Cc2c(F)cc(N)cc2F)ccn1 [11s]")
"Not met"
>>> class_assignment("N#Cc1ccnc(-c2nc(N)nc3c2cnn3Cc2ccc(N)c(C(F)(F)F)c2)c1 [11v]")
"Met"

Attention now shifts to the item below.
[in] Can N#Cc1cc(-c2nc(N)nc3c2cnn3Cc2ccc(N)cc2)ccn1 [11d] be said to have pKi at or above 7?
[out] Not met

---

Test: pharmacokinetics and bioavailability in mouse plasma
Format: in vivo, Crl:CD-1 mice
Details: male, Crl:CD-1, mouse, plasma, po, 10 mg/kg, mouse plasma; 10 mg/kg PO; read-out: Cmax
Procedure: Male Crl:CD-1 mice of 9~10 weeks of age were purchased from Charles River Laboratories, USA and maintained at standard food and water ad libitum in temperature-controlled room with 12 h on-off light cycle before the experiment. […] Resulting plasma were stored in a freezer set to maintain −70 °C until analyzed for 11o concentration. […] Dose proportionality was assessed, and bioavailability was calculated for PO dosing.
observed_property: Cmax
Remember to follow the number with its unit.

[in] Fill in Cmax for record Cc1cc(Cn2ncc3c(-c4cccc(C#N)c4F)nc(N)nc32)ccc1N [11o]
[out] 367 ng/mL
